The measurements presented in this section are drawn from ChEMBL document CHEMBL3228012.

Test system: Calf thymus DNA
Assay: Binding affinity to calf thymus DNA in 0.15 M NaCl-0.01 M sodium phosphate buffer at pH 7.3 at 37 degC incubated for 5 mins
Format: nucleic-acid assay
Conditions: Bos taurus
Activity calls are given as the source filed them. No cut-off for these calls is given here.
Value type: Activity

Smiles text: Cc1ccc(C(=O)N[C@@H]2C(=O)N[C@H](C(C)C)C(=O)N3CCC[C@H]3C(=O)N(C)CC(=O)N(C)[C@@H](C(C)C)C(=O)O[C@@H]2C)c2c1Oc1c(c(C(=O)N[C@@H]3C(=O)N[C@H](C(C)C)C(=O)N4CCC[C@H]4C(=O)N(C)CC(=O)N(C)[C@@H](C(C)C)C(=O)O[C@@H]3C)c3nc(CC(=O)O)c(=O)oc3c1C)N2
Value type: Activity
Assay result: inactive
--
Smiles text: Cc1ccc(C(=O)N[C@@H]2C(=O)N[C@H](C(C)C)C(=O)N3CCC[C@H]3C(=O)N(C)CC(=O)N(C)[C@@H](C(C)C)C(=O)O[C@@H]2C)c2c1Oc1c(c(C(=O)N[C@@H]3C(=O)N[C@H](C(C)C)C(=O)N4CCC[C@H]4C(=O)N(C)CC(=O)N(C)[C@@H](C(C)C)C(=O)O[C@@H]3C)c3nc(CCC(=O)O)c(=O)oc3c1C)N2
Value type: Activity
Assay result: inactive
